Biological target: T1, soluble human erythropoietin receptor protein (huEpoR) (human) (UniProt P19235)
T1 sequence (looked up): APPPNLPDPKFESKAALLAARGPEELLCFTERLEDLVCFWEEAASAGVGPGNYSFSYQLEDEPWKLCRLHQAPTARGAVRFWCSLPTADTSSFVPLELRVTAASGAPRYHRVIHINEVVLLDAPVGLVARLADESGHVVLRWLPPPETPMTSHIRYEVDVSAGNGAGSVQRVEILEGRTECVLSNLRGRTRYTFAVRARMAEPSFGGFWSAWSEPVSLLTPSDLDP
Assay: SPR, Biacore T100; scFv-Fc captured by anti-human IgG Fc on CM5 chip, EpoR as analyte
koff listing for selected binders.
Numeric only. Scale: s⁻¹

Here are 4 binders together with their reported answers.
Binder: clone 201 scFv-Fc protein (Fc fusion, part only; not given: scFv linker and IgG1 Fc, not shown: a dimerising Fc or GST) scFv, part: QVQLQESGSGLARPSQTLSLTCAVSGGSISSSAFSWNWIRQPPGKGLEWIGYIYHTGITDYNPSLKSRVTISVDRSKNQFSLNVNSVTAADTAVYYCARGHGSDPAWFDPWGKGTLVTVSSQSVLTQPPSVSVSPGQTASITCSGDKLGDKYASWYQQRPGQSPVLVIYRDTKRPSGIPERFSGSNSGNTATLTISGTQAVDEADYYCQAWDSTTSLVFGGGTKLTVL
Value units: s⁻¹
koff: 0.0187
//
Binder: clone 13 scFv-Fc protein (Fc fusion, part only; not given: scFv linker and IgG1 Fc, not shown: a dimerising Fc or GST) scFv, part: QVQLQQSGGGVVQPGRSLRLSCAASGFTFSDYAMHWVRQAPGKGLEWVAVISNHGKSTYYADSVKGRFTISRDNSKHMLYLQMNSLRADDTALYYCARDIALAGDYWGQGTLVTVSADIQMTQSPSSLSASVGDRVTITCRASQSISSYLNWYQQLPGKVPKLLIYGASKLQSGVPSRFSGSGSGTDFTLTISSLQPEDFATYYCLQDYNYPLTFGPGTRLEIK
Value units: s⁻¹
koff: 0.0568
//
Binder: clone 307 scFv-Fc protein (Fc fusion, part only; not given: scFv linker and IgG1 Fc, not shown: a dimerising Fc or GST) scFv, part: EVQLVESGGGLVQPGGSLRLSCAVSGFTFSKYWMTWVRQAPGKGLEWVANIKPDGSEKYYVESVKGRFTISRDNAKNSVYLQMNSVRAEDTAVYYCARVSRGGSFSDWGQGTMVTVSSQSVLTQPPSASGSPGQSVTISCTGTSSDVGGYNYVSWYQQHPDKAPRLMIYDVNKRPSGVPDRFSGSKSGNTASLTVSGLQAEDEAHYYCNSYAGSNNWVFGGGTQLTVL
Value units: s⁻¹
koff: 0.246
//
Binder: clone 295 scFv-Fc protein (Fc fusion, part only; not given: scFv linker and IgG1 Fc, not shown: a dimerising Fc or GST) scFv, part: EVQLVESGGGLVQPGGSLRLSCAASGFTFSSYAMSWVRQAPGKGLEWVSGISGSGSSEGGTYYADSVKGRFTLSRDNSKNTLYLQMNSLRAEDTALYYCVKDRPSRYSFGYYFDYWGRGTLVTVSSLPVLTQPPSVSVSPGQTASIACSGNKLGDKYVSWYQQKPGQSPLLVIYQDTKRPSGIPERFSGSNSGNTATLTISGTQAMDEADYYCQAWDSSTDVVFGGGTKLTVL
Value units: s⁻¹
koff: 0.00296

Inquiry: Identify koff associated with the binder clone 15 scFv-Fc protein (Fc fusion, part only; not given: scFv linker and IgG1 Fc, not shown: a dimerising Fc or GST) scFv, part: QVQLQESGPGLVRPSGTLSLTCAVSGGSIGSSNWWSWVRQAPGKGLEWIGEISQSGSTNYNPSLKGRVTISLDRSRNQLSLKLSSVTAADTAVYYCARQLRSIDAFDIWGPGTTVTVSASYVLTQPPSVSVSPGLTATITCSGDKLGDKYASWYQQKPGQSPVLVIYQDRKRPSGIPERFSGSNSGNTATLTISGTQAVDEADYYCQAWDSDTSYVFGTGTQLTVL
Reply text: 0.119

Inquiry: Identify koff associated with the binder clone 318 scFv-Fc protein (Fc fusion, part only; not given: scFv linker and IgG1 Fc, not shown: a dimerising Fc or GST) scFv, part: QVQLVESGGGLVQPGGSLRLSCAVSGFTFSKYWMTWVRQAPGKGLEWVANIKPDGSEKYYVESVKGRFTISRDNAKNSVYLQMNSVRAEDTAVYYCARVSRGGSFSDWGQGTLVTVSSQSVLTQPPSASGSPGQSVTISCTGTSSDVGGYNYVSWYQQHPGRAPKLIIYEVSKRPSGVPDRFSGSKSGNTASLTVSGLQADDEADYYCNSYAGSIYVFGSGTKVTVL
Reply text: 0.558

Inquiry: Identify koff associated with the binder clone 330 scFv-Fc protein (Fc fusion, part only; not given: scFv linker and IgG1 Fc, not shown: a dimerising Fc or GST) scFv, part: EVQLVESGGGLVQPGGSLRLSCAVSGFTFSKYWMTWVRQAPGKGLEWVANIKPDGSEKYYVESVKGRFTISRDNAKNSVYLQMNSVRAEDTAVYYCARVSRGGSFSDWGQGTLVTVSSQSALTQPPSASGSPGQSVTISCTGTSSDVGAYNYVSWYQQHPGKAPKLMIYEVARRPSGVPDRFSGSKSGNTASLTVSGLQAEDEADYYCSSYAGSNNFAVFGRGTKLTVL
Reply text: 0.0373

Inquiry: Identify koff associated with the binder clone 34 scFv-Fc protein (Fc fusion, part only; not given: Linker and IgG1 Fc, not shown: another chain or arm of the molecule; a dimerising Fc or GST; small tags and cut ends) VH: QVQLQQSGAEVKKPGASVKVSCKASGYTFSGYYMHWVRQAPGQGLEWMGWINPNSGSTNYAQKFLGRVTMTRDTSISTAYMELSSLRSDDTAVYYCARGHSGDYFDYWGQGTLVTVSA VL: EIVLTQSPSSLSASVGDRVTITCRASQSVSSWLAWYQQRPGQAPKLLIYAARLRGGGPSRFSGSGSGTEFTLTISSLQPEDFATYFCQQSYSTPISFGGGTKLEIK
Reply text: 0.203

Inquiry: Identify koff associated with the binder clone 319 scFv-Fc protein (Fc fusion, part only; not given: Linker and IgG1 Fc, not shown: another chain or arm of the molecule; a dimerising Fc or GST; small tags and cut ends) VH: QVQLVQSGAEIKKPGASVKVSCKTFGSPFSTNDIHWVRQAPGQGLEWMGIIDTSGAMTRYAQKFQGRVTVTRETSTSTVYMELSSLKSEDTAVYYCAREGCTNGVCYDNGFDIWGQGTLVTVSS VL: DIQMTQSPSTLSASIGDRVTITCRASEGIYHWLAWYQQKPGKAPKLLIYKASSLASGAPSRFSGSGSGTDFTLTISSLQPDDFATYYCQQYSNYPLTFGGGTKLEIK
Reply text: 0.0335

Inquiry: Identify koff associated with the binder clone 16 scFv-Fc protein (Fc fusion, part only; not given: scFv linker and IgG1 Fc, not shown: a dimerising Fc or GST) scFv, part: QVQLQESGPGLVKPSETLSLTCTVSGGYINNYYWSWIRQPPGKGLEWIGYIHYSGSTYYNPSLKSRVTISEDTSKNQFSLKLSSATAADTAVYYCARVGYYYDSSGYNLAWYFDLWGRGTLVTVSASSELTQDPAVSVALGQTVRITCQGDNLRSYSATWYQQKPGQAPVLVLFGENNRPSGIPDRFSGSKSGDTAVLTITGTQTQDEADYYCTSRVNSGNHLGVFGPGTQLTVL
Reply text: 0.142
